Molecular target: HIV-1 Integrase (Human immunodeficiency virus type 1 group M subtype B)
Construct: HIV-1 Integrase Assay Kit from ExpressBio; purchased ExpressBio (Thurnmont, Md.)
Test: HIV-1 Integrase Assay
Type: biochemical
Conditions: HIV-1 Integrase Assay Kit from ExpressBio
Provide the recorded IC50 for the entries that follow.

## Task Notebook: pull reported IC50 for HIV-1 Integrase (Human immunodeficiency virus type 1 group M subtype B), entry Cc1nc(C(CN)NC(=O)c2ccc(-c3ccc(Cl)cc3)[nH]2)sc1CO (single isomer, unassigned)
## Result > 100 µM

## Task Notebook: pull reported IC50 for HIV-1 Integrase (Human immunodeficiency virus type 1 group M subtype B), entry CC1(C)CC(NC(=O)C(=O)Nc2ccc(Cl)cc2)CC(C)(C)N1
## Result > 200 µM

Values compiled from patent US10576059B2.
